Tested on: HeLa cells
MEASUREMENT PROTOCOL: Confocal laser scanning microscopy and degradation study with PA library and HeLa cells
Assay type: cell-based
CONDITION DETAILS: d3 relative to d0
Description: In general, the procedure for determine whether a PA is degraded or not, is conducted by confocal laser scanning microscopy of Proteostat stained PAs which are added to Hela cells (2 µg peptide added to 20.000 cells). Microscopy is conducted at day 0 (d0, after 30 min of incubation) and at day 3 (d3, after 72 h of incubation). The number of aggregates >10 µm^2 is counted via 3D object counter in imaged in an area of 1008 µm × 1008 µm. […]
Where a SMILES comes first, the peptide text is derived from it. The star is where a group is joined. Palmitoyl = CCCCCCCCCCCCCCCC(=O)*
REPORTED METRIC: aggregate number increases
Please give the number followed by its unit.

Q. Using the record for CCCCCCCCCCCCCCCC(=O)N[C@@H](CC(N)=O)C(=O)N[C@@H](Cc1ccccc1)C(=O)N[C@@H](Cc1ccc(O)cc1)C(=O)N[C@@H](CC(C)C)C(=O)N[C@@H](CCC(N)=O)C(=O)N[C@H](C(=O)N[C@@H](CC(N)=O)C(=O)N[C@@H](CCCCN)C(=O)N[C@H](C(=O)N[C@@H](CC(N)=O)C(=O)N[C@@H](CCCCN)C(N)=O)[C@@H](C)CC)C(C)C [Pat27] (Palmitoyl-NFYLQVNKINK-NH2) , report its aggregate number increases.
A. 123%
